All figures here come from patent US9556139B2.

- target: human DP2 (Homo sapiens (Human), UniProt Q9Y5Y4)
- Sequence (Q9Y5Y4 whole entry): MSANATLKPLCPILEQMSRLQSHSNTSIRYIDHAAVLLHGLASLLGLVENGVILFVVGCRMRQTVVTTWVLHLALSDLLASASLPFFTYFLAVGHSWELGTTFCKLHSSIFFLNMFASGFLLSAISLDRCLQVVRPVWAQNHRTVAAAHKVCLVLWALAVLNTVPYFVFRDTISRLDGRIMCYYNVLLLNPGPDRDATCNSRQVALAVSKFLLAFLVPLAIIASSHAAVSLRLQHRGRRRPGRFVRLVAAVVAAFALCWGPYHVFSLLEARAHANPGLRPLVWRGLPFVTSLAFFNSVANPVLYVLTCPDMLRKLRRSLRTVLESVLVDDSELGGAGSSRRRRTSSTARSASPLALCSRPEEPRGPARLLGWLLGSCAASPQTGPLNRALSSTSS
- protocol notes: DP-2 Binding Inhibition Assay (3H-PGD2 binding to membranes of K562 cells expressing DP2)
- condition description: read-out: EC50 (nM) 4% HSA; inhibition of 3H-PGD2 binding, 4% HSA
Hi there, I'd appreciate the recorded EC50 for every entry that follows.
I'd appreciate it if you wrote the number followed by its unit.

// O=C(NCCc1ccccc1F)c1ccc(Oc2cc3c(cc2Cl)C(C(=O)O)CCO3)cc1 (centres unmarked) : EC50 value = 521 nM

// CSc1ccccc1CCNC(=O)c1ccc(Oc2cc3c(cc2Cl)C(C(=O)O)CCO3)cc1 (centres unmarked) : EC50 value = 246 nM

// O=C(NCC(O)c1ccc(Cl)cc1Cl)c1ccc(Oc2cc3c(cc2Cl)C(C(=O)O)CCO3)cc1 (centres unmarked) : EC50 value = 689 nM

// O=C(NCCc1ccc(Cl)cc1)c1ccc(Oc2c(Cl)cc3c(c2Br)OCCC3C(=O)O)cc1 (centres unmarked) : EC50 value = 366 nM

// CSc1ccc(C2CCC(NC(=O)c3ccc(Oc4cc5c(cc4Cl)C(C(=O)O)CCO5)cc3)C2)cc1 (centres unmarked) : EC50 value = 572 nM

// O=C(NCCc1ccc(Cl)cc1Cl)c1ccc(Oc2c(Cl)cc3c(c2C2CC2)OCCC3C(=O)O)cc1 (centres unmarked) : EC50 value = 51.5 nM

// O=C(NCCc1ccc(C(F)(F)F)cc1C1CC1)c1ccc(Oc2cc3c(cc2Cl)C(C(=O)O)CCO3)cc1 (centres unmarked) : EC50 value = 46.5 nM

// COc1cccc(CCNC(=O)c2ccc(Oc3cc4c(cc3Cl)C(C(=O)O)CCO4)cc2)c1 (centres unmarked) : EC50 value = 1010 nM

// O=C(NC1CCC(c2ccc(Cl)c(Cl)c2)C1)c1ccc(Oc2cc3c(cc2Cl)C(C(=O)O)CCO3)cc1 (centres unmarked) : EC50 value = 327 nM

// CC(C)Oc1cccc(NC(=O)c2ccc(Oc3cc4c(cc3C#N)C(C(=O)O)CCO4)cc2)c1 (centres unmarked) : EC50 value = 205 nM

// CCOc1cc(OC)ccc1CCNC(=O)c1ccc(Oc2cc3c(cc2Cl)C(C(=O)O)CCO3)cc1 (centres unmarked) : EC50 value = 88.9 nM
